Listing of recorded growth by entry.
Tested on: MDA-MB-231 breast
assay_overview: NCI-60 one-dose screen, 48 h (100 = growth as untreated, 0 = no growth, -100 = all killed)
reported_conditions: 10 µM unless noted
The panel holds about 83,000 compounds, 20% with a hit somewhere; the sample as a whole holds those more often.
property_measured: growth (%)

>>> df
                                   compound  property_measured  numeric_readout
0  Cc1cc(N(CCCl)CCCl)ccc1C=Nc1ccc(-c2csc(-c3ccccc3)n2)cc1             growth             90.3
1  Cc1ccc(NC2=N[C@]34CC(=O)CC[C@]3(C)[C@H]3CC[C@]5(C)C(=O)CC[C@H]5[C@@H]3C[C@@H]4S2)c(C)c1             growth             26.6
2           O=[N+]([O-])c1cc(Br)c(O)c(Br)c1             growth              103
3  CC1=C2[C@H]3OC(=O)[C@@H](C)[C@@H]3CC[C@@]2(C)C=CC1=O             growth              112
4  COc1cc(C2C3=C(CCCC3=O)N(CCO)c3cc4c(cc32)CCC4)cc(OC)c1OC (centres undefined)             growth             82.1
5                     CC(C)COC(=O)Cc1ccccc1             growth              120
6  C/C(=C\c1ccn(-c2ccc(N)cc2F)n1)[C@@H]1C[C@@H]2O[C@]2(C)CCC[C@H](C)[C@H](O)[C@@H](C)C(=O)C(C)(C)[C@@H](O)CC(=O)O1             growth             20.8
7  CCC(=O)C(CC(C)N1CCCCCC1)(c1ccccc1)c1ccccc1 (centres undefined)             growth             92.4
8  C#Cc1cccc(Nc2nc(Cl)nc3cc(NC(=O)CF)ccc23)c1             growth             64.5

Data provenance is PubChem BioAssay (NCI).
